experiment: ABTS radical cation scavenging activity
pIC50: −log10 of the molar value.
experimental-readout: pIC50

• CC(=NNc1nc(-c2cccc([N+](=O)[O-])c2)cs1)c1ccsc1 [Compound 5] = 2.98
• O=[N+]([O-])c1cccc(-c2csc(NN=Cc3ccccc3[N+](=O)[O-])n2)c1 [Compound 8] = 2.98
• O=[N+]([O-])c1cccc(-c2csc(NN=Cc3cccc4ccccc34)n2)c1 [Compound 28] = 2.98
• CC(=NNc1nc(-c2cccc([N+](=O)[O-])c2)cs1)c1ccncc1 [Compound 21] = 2.98
• O=[N+]([O-])c1cccc(-c2csc(NN=Cc3ccccc3)n2)c1 [Compound 7] = 2.98
• CC(=NNc1nc(-c2cccc([N+](=O)[O-])c2)cs1)c1cccnc1 [Compound 20] = 2.98
• O=[N+]([O-])c1cccc(-c2csc(NN=Cc3ccccn3)n2)c1 [Compound 16] = 2.97
• CC(=NNc1nc(-c2cccc([N+](=O)[O-])c2)cs1)c1cccs1 [Compound 4] = 2.98
• CC(=NNc1nc(-c2cccc([N+](=O)[O-])c2)cs1)c1cccc2ccccc12 [Compound 29] = 2.98
• CC(=NNc1nc(-c2cccc([N+](=O)[O-])c2)cs1)c1cnccn1 [Compound 22] = 2.98
• CC(=NNc1nc(-c2cccc([N+](=O)[O-])c2)cs1)c1ccc(Cl)s1 [Compound 6] = 2.97
• O=[N+]([O-])c1cccc(-c2csc(NN=Cc3ccncc3)n2)c1 [Compound 18] = 2.98
• CC(=NNc1nc(-c2cccc([N+](=O)[O-])c2)cs1)c1ccccc1[N+](=O)[O-] [Compound 13] = 2.98
• CC(=NNc1nc(-c2cccc([N+](=O)[O-])c2)cs1)c1ccccc1 [Compound 11] = 2.98
• Cc1c(C)c2c(c(C)c1O)CCC(C)(C(=O)O)O2 (centres unmarked) [Trolox, trolox, reference compound] = 3.18
• CC(=NNc1nc(-c2cccc([N+](=O)[O-])c2)cs1)c1ccccn1 [Compound 19] = 2.98
• O=[N+]([O-])c1cccc(-c2csc(NN=Cc3cccs3)n2)c1 [Compound 3] = 2.98
